# key: entry, value: viability, T/C
- System: 898857-211-R-J1-PDC complex spheroids, growth % test/control
- Assay explanation: Anticancer human tumor 898857-211-R-J1-PDC patient-derived melanoma cell line growth inhibition [RAS]
- Condition details: second compound 0.00949 µM; first compound 1 µM; stronger effect = lower value
- Description: RAS pathway inhibitors in Combinations in Complex Spheroids A high-throughput screen of multi-cell type tumor spheroids was designed to identify active combinations of RAS pathway inhibitors and targeted small molecules. Complex spheroids include a stromal component modeled by human endothelial cells (HUVEC) and fibroblasts modeled by human mesenchymal stem cells (MSCs). […] Compounds. […] If the clinical Cmax for an agent had not been determined, the highest concentration tested was 10 microM. […]

# Compound, Reported value
measured = [
    ("CCN1CCN(Cc2ccc(Nc3ncc(F)c(-c4cc(F)c5nc(C)n(C(C)C)c5c4)n3)nc2)CC1 + CCn1c(-c2cc(N3CCN(C)CC3)cnc2C(C)OC)c2c3cc(ccc31)-c1csc(n1)CC(NC(=O)C1CC1C)C(=O)N1CCCC(N1)C(=O)OCC(C)(C)C2", "36.4%"),
    ("NC1c2ccccc2OC12CCN(c1cnc3c(N4CCCc5ncccc54)n[nH]c3n1)CC2 (centres undefined) + CCn1c(-c2cccnc2C(C)OC)c2c3cc(ccc31)N1CCOC(CC(NC(=O)C(C(C)C)N(C)C(=O)C3(F)CCN(C(=O)C#CC(C)(C)N(C)C)CC3)C(=O)N3CCCC(N3)C(=O)OCC(C)(C)C2)C1", "87.2%"),
    ("CC(Nc1ccc2c(c1)OCCn1cc(N3C(=O)OCC3C(F)F)nc1-2)C(N)=O (centres undefined) + CCn1c(-c2cccnc2C(C)OC)c2c3cc(ccc31)N1CCOC(CC(NC(=O)C(C(C)C)N(C)C(=O)C3(F)CCN(C(=O)C#CC(C)(C)N(C)C)CC3)C(=O)N3CCCC(N3)C(=O)OCC(C)(C)C2)C1", "103%"),
]

Next up:
Problem: Can you look up the measured viability, T/C of NC1c2ccccc2OC12CCN(c1cnc3c(N4CCCc5ncccc54)n[nH]c3n1)CC2 (centres undefined) + CCn1c(-c2cc(N3CCN(C)CC3)cnc2C(C)OC)c2c3cc(ccc31)-c1csc(n1)CC(NC(=O)C1CC1C)C(=O)N1CCCC(N1)C(=O)OCC(C)(C)C2 for me?
Result: 102%

----------
- Tested on: 898857-211-R-J1-PDC complex spheroids, growth % test/control
- Assay explanation: Anticancer human tumor 898857-211-R-J1-PDC cell line growth inhibition [RAS];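 also: spheroids exposed to compound for seven days before readout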
- Condition details: curve of first compound; second compound 0.000949 µM
Reported metric: IC50 (nM)
Respond with the bare value in nM.

# Compound, Endpoint unit, IC50
data = [
    ("CC(C)n1nc(-c2ccc3oc(N)nc3c2)c2c(N)ncnc21 + CCn1c(-c2cc(N3CCN(C)CC3)cnc2C(C)OC)c2c3cc(ccc31)-c1csc(n1)CC(NC(=O)C1CC1C)C(=O)N1CCCC(N1)C(=O)OCC(C)(C)C2", "nM", 20.5),
    ("CC1(C)CCC(Nc2ncc(C(F)(F)F)c(-c3c[nH]c4c(P(C)(C)=O)c(C#N)ccc34)n2)CN1 (stereo not given) + CCn1c(-c2cc(N3CCN(C)CC3)cnc2C(C)OC)c2c3cc(ccc31)-c1csc(n1)CC(NC(=O)C1CC1C)C(=O)N1CCCC(N1)C(=O)OCC(C)(C)C2", "nM", 2.87),
    ("CC1(O)CCCC1n1c(=O)c(C(F)F)cc2cnc(NC3CCN(S(C)(=O)=O)CC3)nc21 (stereo not given) + CCn1c(-c2cc(N3CCN(C)CC3)cnc2C(C)OC)c2c3cc(ccc31)-c1csc(n1)CC(NC(=O)C1CC1C)C(=O)N1CCCC(N1)C(=O)OCC(C)(C)C2", "nM", 121),
]

Consider the record given below.
Problem: Recorded IC50 of C[C@@H](NC(=O)c1ncnc(N)c1Cl)c1ncc(C(=O)Nc2cc(C(F)(F)F)c(Cl)cn2)s1 + CCn1c(-c2cccnc2C(C)OC)c2c3cc(ccc31)N1CCOC(CC(NC(=O)C(C(C)C)N(C)C(=O)C3(F)CCN(C(=O)C#CC(C)(C)N(C)C)CC3)C(=O)N3CCCC(N3)C(=O)OCC(C)(C)C2)C1 , please.
Result: 3860

----------
- Test system: 898857-211-R-J1-PDC complex spheroids, growth % test/control
- Assay explanation: Anticancer human tumor 898857-211-R-J1-PDC cell line growth inhibition [RAS]; active means viability on the fitted dose curve at most 10% of control; inactive means the rest;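 also: spheroids exposed to compound for seven days before readout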
- Condition details: second compound 3.16 µM; first compound 1 µM
I would appreciate it if you answered using one of these outcomes: active, inactive

See these solved cases before continuing.
# Compound, Assigned category
measured = [
    ("O=C(c1ccc(F)c(F)c1Nc1ccc(I)cc1F)N1CC(O)([C@@H]2CCCCN2)C1 + C#Cc1c(F)ccc2cc(O)cc(-c3ncc4c(N5CC6CCC(C5)N6)nc(OCC56CCCN5CC(F)C6)nc4c3F)c12", "inactive"),
    ("Cc1nc(N2CCC3(CC2)COC(C)C3N)c(CO)nc1Sc1ccnc(N)c1Cl (configuration not stated) + C#Cc1c(F)ccc2cc(O)cc(-c3ncc4c(N5CC6CCC(C5)N6)nc(OCC56CCCN5CC(F)C6)nc4c3F)c12", "inactive"),
    ("CC(=O)OC12COC1CC(O)C1(C)C(=O)C(O)C3=C(C)C(OC(=O)C(O)C(NC(=O)OC(C)(C)C)c4ccccc4)CC(O)(C(OC(=O)c4ccccc4)C21)C3(C)C (configuration not stated) + C#Cc1c(F)ccc2cc(O)cc(-c3ncc4c(N5CC6CCC(C5)N6)nc(OCC56CCCN5CC(F)C6)nc4c3F)c12", "inactive"),
    ("Nc1ccn(C2OC(CO)C(O)C2(F)F)c(=O)n1 (configuration not stated) + C#Cc1c(F)ccc2cc(O)cc(-c3ncc4c(N5CC6CCC(C5)N6)nc(OCC56CCCN5CC(F)C6)nc4c3F)c12", "active"),
    ("C[C@@H](NC(=O)c1ncnc(N)c1Cl)c1ncc(C(=O)Nc2cc(C(F)(F)F)c(Cl)cn2)s1 + C#Cc1c(F)ccc2cc(O)cc(-c3ncc4c(N5CC6CCC(C5)N6)nc(OCC56CCCN5CC(F)C6)nc4c3F)c12", "inactive"),
]

Problem: Could you kindly confirm the outcome this assay logged for C=CC(=O)Nc1cc(Nc2nccc(-c3cn(C)c4ccccc34)n2)c(OC)cc1N(C)CCN(C)C + C#Cc1c(F)ccc2cc(O)cc(-c3ncc4c(N5CC6CCC(C5)N6)nc(OCC56CCCN5CC(F)C6)nc4c3F)c12 ?
Result: inactive

Problem: Note, next up: CC(C)NCC(C(=O)N1CCN(c2ncnc3c2C(C)CC3O)CC1)c1ccc(Cl)cc1 (configuration not stated) + C#Cc1c(F)ccc2cc(O)cc(-c3ncc4c(N5CC6CCC(C5)N6)nc(OCC56CCCN5CC(F)C6)nc4c3F)c12
Result: inactive

----------
Reported viability, T/C by item:
- Tested on: 898857-211-R-J1-PDC complex spheroids, growth % test/control
- Assay explanation: Anticancer human tumor 898857-211-R-J1-PDC cell line growth inhibition [RAS];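 also: spheroids exposed to compound for seven days before readout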;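 as to viability, T/C: 100% = DMSO vehicle control wells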
- Condition details: second compound 0.000949 µM; first compound 0.0316 µM; stronger effect = lower value
Give a bare numeral; the unit % is implied.

The examples below pair each entry with its known result.
# Compound, Tested system, Endpoint unit, viability, T/C
records = [
    ("C=CC(=O)N1CCN(c2nc(OCC3CCCN3C)nc3c(F)c(-c4nc(N)cc(C)c4C(F)(F)F)c(Cl)cc23)C(C)C1 (stereo not given) + CCn1c(-c2cc(N3CCN(C)CC3)cnc2C(C)OC)c2c3cc(ccc31)-c1csc(n1)CC(NC(=O)C1CC1C)C(=O)N1CCCC(N1)C(=O)OCC(C)(C)C2", "898857-211-R-J1-PDC complex spheroids, growth % test/control", "%", 105),
    ("Cc1nc(N2CCC3(CC2)COC(C)C3N)c(CO)nc1Sc1ccnc(N)c1Cl (stereo not given) + CCn1c(-c2cc(N3CCN(C)CC3)cnc2C(C)OC)c2c3cc(ccc31)-c1csc(n1)CC(NC(=O)C1CC1C)C(=O)N1CCCC(N1)C(=O)OCC(C)(C)C2", "898857-211-R-J1-PDC complex spheroids, growth % test/control", "%", 99.6),
    ("CC1(O)CCCC1n1c(=O)c(C(F)F)cc2cnc(NC3CCN(S(C)(=O)=O)CC3)nc21 (stereo not given) + CCn1c(-c2cc(N3CCN(C)CC3)cnc2C(C)OC)c2c3cc(ccc31)-c1csc(n1)CC(NC(=O)C1CC1C)C(=O)N1CCCC(N1)C(=O)OCC(C)(C)C2", "898857-211-R-J1-PDC complex spheroids, growth % test/control", "%", 92.9),
    ("CC(=O)OC12COC1CC(O)C1(C)C(=O)C(O)C3=C(C)C(OC(=O)C(O)C(NC(=O)OC(C)(C)C)c4ccccc4)CC(O)(C(OC(=O)c4ccccc4)C21)C3(C)C (stereo not given) + CCn1c(-c2cc(N3CCN(C)CC3)cnc2C(C)OC)c2c3cc(ccc31)-c1csc(n1)CC(NC(=O)C1CC1C)C(=O)N1CCCC(N1)C(=O)OCC(C)(C)C2", "898857-211-R-J1-PDC complex spheroids, growth % test/control", "%", 11.2),
]

Below: the item to evaluate.
Problem: Short answer please: viability, T/C, 898857-211-R-J1-PDC complex spheroids, growth % test/control, entry NC1c2ccccc2OC12CCN(c1cnc3c(N4CCCc5ncccc54)n[nH]c3n1)CC2 (stereo not given) + CCn1c(-c2cccnc2C(C)OC)c2c3cc(ccc31)N1CCOC(CC(NC(=O)C(C(C)C)N(C)C(=O)C3(F)CCN(C(=O)C#CC(C)(C)N(C)C)CC3)C(=O)N3CCCC(N3)C(=O)OCC(C)(C)C2)C1
Result: 91.6
